# Assay System: human TREM2 extracellular domain (ECD) (Homo sapiens, UniProt Q9NZC2)
# Sequence (Q9NZC2 19-174): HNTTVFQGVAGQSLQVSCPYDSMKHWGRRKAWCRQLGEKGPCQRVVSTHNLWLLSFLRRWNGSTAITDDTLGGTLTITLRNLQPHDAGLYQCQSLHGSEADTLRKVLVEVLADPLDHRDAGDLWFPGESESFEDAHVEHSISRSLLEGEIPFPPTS
Assay Readout: binding result

R18-11-11 (antibody, V domains shown) VH: AVQLVESGGGLVQPKESLKISCAASGFTFSNAAMHWVRQAPGKGLEWVARIRTRPNNYATYYADSVKGRFTISRDDSKSMVYLQMDNLKTEDTAMYYCTAGTGSSPFAYWGQGTLVTVSS VL: DIVMTQSPSSLAVSAGETVTIDCKSSQSLLYSGNQKTYLAWYQQKPGQSPKLLIYWASTRQSGVPDRFIGSGSGTDFTLTISSVQAEDLAIYYCQQYYDTPLTFGSGTKLEIK :: binds
R18-12-22 (antibody, V domains shown) VH: AVQLVESGGGLVQPKESLKISCAASGFTFSNAAIYWVRQAPGKGLEWVARIRTKPNNYATYYADSVKGRFTISRDDSKSMVYLQMDNLKTEDTAMYYCTAGYYSGGPFAYWGQGTLVTVSS VL: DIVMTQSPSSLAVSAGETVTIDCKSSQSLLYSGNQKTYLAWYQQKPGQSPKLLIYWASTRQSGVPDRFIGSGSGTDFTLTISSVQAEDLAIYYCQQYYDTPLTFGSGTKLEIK :: binds
R19-11-42 (antibody, V domains shown) VH: AVQLVESGGGLVHPQESLKISCLASGLSFSSAAMYWVRQVPGKGLEWLARIRTKPNNYATFYADSVKGRFTISRDDSKSMVFLQMDDLNTEDTAIYYCTASVFTVAFEYWGQGVMVTVSS VL: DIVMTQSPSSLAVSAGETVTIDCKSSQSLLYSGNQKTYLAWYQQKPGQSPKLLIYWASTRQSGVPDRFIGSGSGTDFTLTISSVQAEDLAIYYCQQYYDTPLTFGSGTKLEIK :: binds
R18-13-29 (antibody, V domains shown) VH: AVQLVESGGGLVQPKESLKVSCAASGFTFSNADIYWVRQAPGKGLEWVARIRTKPNNYATYYGDSVKGRFTISRDDSKSMVYLQMDNLKTEDTAMYYCTAGEGLWVNYFDYWGQGVMVTVSS VL: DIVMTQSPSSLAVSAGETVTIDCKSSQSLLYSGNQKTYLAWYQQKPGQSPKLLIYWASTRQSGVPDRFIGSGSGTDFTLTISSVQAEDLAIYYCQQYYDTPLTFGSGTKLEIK :: binds

Now turn to the next binder.
**Q:** May I ask what binding result has been recorded for R18-11-06 (antibody, V domains shown) VH: AVQLVESGGGLVQPKESLKISCAASGFTFSNAAMYWVRQAPGKGLEWVARIRTQPNNYATYYADSVKGRFTISRDDSKSVVYLQMDNLKTADTAMYYCTAGYGYNLFDYWGQGVMVTVSS VL: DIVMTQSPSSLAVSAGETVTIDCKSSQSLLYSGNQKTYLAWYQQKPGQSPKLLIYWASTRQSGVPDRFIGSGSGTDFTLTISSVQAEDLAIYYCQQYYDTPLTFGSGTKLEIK ?
**A:** binds

These entries and their values trace back to paper PMC11437124.
